// provenance: PubChem BioAssay AID977622

Tested on: E. coli WT ribosome GFP fluorescence, mixed culture, 24 h
RUN DESCRIPTION: wild-type E. coli growth inhibition versus h38 humanized strain – h38 mutant RFP, wild-type GFP, cherry-pick, dose response (AID 977622)
RECORDED CONDITIONS: E. coli mixed culture, 24 h; measured here: total growth OD600
Records with an inconclusive call do not appear.
EXPERIMENTAL ENDPOINT: AC50

[
  {
    "COMPOUND": "COc1ccc(CNC(=O)c2sc3nc4c(c(C(F)(F)F)c3c2N)CCC4)cc1OC",
    "ASSAYED SYSTEM": "E. coli WT ribosome GFP fluorescence, mixed culture, 24 h",
    "EXPERIMENTAL ENDPOINT": "AC50",
    "OBSERVED RESULT": "> 100 µM"
  }
]

Could I get AC50 for every one of these entries?
1. CCOc1ccc(-c2nc(-c3cccs3)c(CC(=O)O)s2)cc1OC
2. Cc1n[nH]c(C)c1S(=O)(=O)N1CCCC(C(=O)Nc2ccc(Br)cc2)C1 (stereo not drawn)
3. CCC1(CC)NC(=O)N(CC(=O)N2N=C(c3ccc(Cl)cc3)CC2c2ccco2)C1=O (stereo not drawn)
4. Cc1ccc(C)c(N(CC(=O)NC2CCCC2)C(=O)c2oc(C(C)(C)C)cc2C)c1
5. C[C@]12C(=O)N(c3ccc(F)cc3)C(=O)N1[C@@H]1c3ccccc3OC[C@@H]1[C@H]2c1ccccc1
6. O=C(CC(=O)c1cccs1)c1ccncc1
7. Cc1cccc(Nc2nc(-c3ccc(F)cc3)cs2)n1
8. CNC(=O)c1ccsc1NC(=O)c1ccc2c(c1)CCCC2

Response line:
1. > 100 µM
2. > 100 µM
3. > 100 µM
4. > 100 µM
5. > 100 µM
6. > 100 µM
7. > 100 µM
8. > 100 µM

Could I get AC50 for every one of these entries?
1. Cc1onc(-c2ccccc2Cl)c1C(=O)OCC(=O)c1ccccc1
2. C[C@@H]1CCCCO[C@H](CN(C)CC2CC2)[C@H](C)CN([C@@H](C)CO)C(=O)c2cc(NC(=O)Nc3cccc4ccccc34)ccc2O1
3. OC(COc1ccc(Cl)cc1)CN1CCN(c2ccccn2)CC1 (stereo not drawn)
4. Nc1c(Cl)cc(C2=NCCn3nc4ccccc4c32)cc1Cl
5. O=C(CSc1nnc(COc2cccc3cccnc23)o1)c1ccc(F)cc1
6. COC(=O)c1c(-c2ccc(OC)cc2)sc2cc(OC)c(OC)cc12
7. C=CCn1c(C)cc(C(=O)CSc2nnc(C3CC3)n2C2CC2)c1C

Response line:
1: > 100 µM; 2: 32.4 µM; 3: > 100 µM; 4: 41.6 µM; 5: > 100 µM; 6: 45.8 µM; 7: > 100 µM

Could I get AC50 for every one of these entries?
1. Cc1ccc(-n2cc(CNCCN3CCOC3=O)c(-c3ccc(F)cc3)n2)cc1
2. COc1ccc(C#Cc2ccc([C@H]3[C@@H](CO)N4CCCCN(C(=O)Nc5cccc(F)c5)C[C@H]34)cc2)cc1
3. CC(=O)Nc1ccc2nc3ccccc3nc2c1
4. C=C1c2cc3c(cc2NC(=S)N1Cc1ccccc1)OCO3
5. O=C(O)c1cccnc1SCc1ccccc1Cl
6. CC(C)n1nnnc1C1c2ccccc2C(=O)N1CCOc1ccccc1 (stereo not drawn)
7. Cc1onc(-c2ccccc2Cl)c1C(=O)N1CCN(Cc2ccc3c(c2)OCO3)CC1

Response line:
["> 100 µM", "> 100 µM", "> 100 µM", "> 100 µM", "42.8 µM", "> 100 µM", "> 100 µM"]

Could I get AC50 for every one of these entries?
1. COc1ccc(OC)c(S(=O)(=O)Nc2cccc3ccc(O)cc23)c1
2. COc1ccc(-c2csc(NC(=O)c3ccoc3C)n2)cc1

Response line:
1. > 100 µM
2. > 100 µM

Could I get AC50 for every one of these entries?
1. CC(C)Oc1ccc(C(CC(=O)O)NC(=O)C(Sc2ccccc2)c2ccccc2)cc1 (stereo not drawn)
2. COc1ccccc1Cn1c(=S)[nH]c2ccccc2c1=O
3. CNC(=O)c1ccsc1NC(=O)c1ccc(S(=O)(=O)N2CCc3ccccc32)cc1
4. Cc1ccc2nc(-c3ccc(Cl)cc3)c(Cc3ccccc3C(F)(F)F)n2c1

Response line:
> 100 µM
42.1 µM
> 100 µM
> 100 µM

Could I get AC50 for every one of these entries?
1. CN(C)S(=O)(=O)N1CCN(c2ccccc2Cl)CC1
2. COc1ccc(CC(=O)NCc2csc(-c3cccs3)n2)cc1OC
3. Clc1ccc(-c2nc3ccc(Br)cn3c2Cc2ccsc2)cc1
4. Fc1ccc(Br)cc1SCCc1ccncc1
5. CC[N+](CC)(CC#Cc1ccccc1)CC#Cc1ccccc1

Response line:
1: > 100 µM; 2: > 100 µM; 3: 35 µM; 4: > 100 µM; 5: > 100 µM

Could I get AC50 for every one of these entries?
1. COc1ccc([C@H]2C[C@H](O)C[C@@H](CCn3cc(-c4ccccc4)nn3)O2)cc1
2. CCOc1ccccc1N1CC(C(=O)Nc2cccc(S(=O)(=O)N3CCCCC3)c2)CC1=O (stereo not drawn)
3. O=[N+]([O-])c1ccc2nc(-c3ccccc3[N+](=O)[O-])[nH]c2c1
4. CN(C)C(CNS(=O)(=O)c1cc([N+](=O)[O-])ccc1Cl)c1ccco1 (stereo not drawn)

Response line:
1. > 100 µM
2. > 100 µM
3. > 100 µM
4. > 100 µM

Could I get AC50 for every one of these entries?
1. C[C@H]1CN([C@@H](C)CO)C(=O)CCCn2nncc2CO[C@@H]1CN(C)Cc1ccccc1C(F)(F)F
2. COC(=O)c1cc2c(c3c4cc(F)ccc4n(S(=O)(=O)c4cccc(C)c4)c13)C(=O)N(Cc1ccco1)C2
3. O=C(CSCc1c(Cl)cccc1Cl)Nc1cccnc1
4. CC(C)(C)S(=O)(=O)Cc1nc(-c2ccc(Cl)c(Cl)c2)cs1
5. O=C(NCc1ccccc1)c1ccc(-c2ccccc2F)o1

Response line:
["> 100 µM", "> 100 µM", "> 100 µM", "> 100 µM", "28.8 µM"]
